Tested on: Human immunodeficiency virus 1
Assay: Antiviral activity against HIV1 K103N mutant
Format: functional, organism-based
REPORTED_PROPERTY: EC50 (µM)
The figure you give is taken to be in µM; do not add the unit.

*Q* Check the records and state EC50 for CCCCCCC12CC1(C(=O)OCC)C(=O)Nc1ccc(Cl)cc12 (stereo unspecified)
*A* 3.08

*Q* Check the records and state EC50 for CCCCC12CC1(C(=O)OC)C(=O)Nc1ccc(Cl)cc12 (stereo unspecified)
*A* 0.682

*Q* Check the records and state EC50 for CCCCC12CC1(C(=O)OCC)C(=O)Nc1ccc(Cl)cc12 (stereo unspecified)
*A* 0.884

*Q* Check the records and state EC50 for CCCCC12CC1(COC)C(=O)Nc1ccc(Cl)cc12 (stereo unspecified)
*A* 2.92

*Q* Check the records and state EC50 for C=CCOC(=O)C12CC1(CCCC)c1cc(Cl)ccc1NC2=O (stereo unspecified)
*A* 1.08

* * *

Record form. Attribute: pEC50. Fill in for each entry.
Test system: Human immunodeficiency virus 1
Test: Antiviral activity against HIV1 K103N mutant
Format: functional, organism-based
Here pEC50 is given on a logarithmic scale as minus log10 of the concentration in mol/L.

*Q* Enter measured pEC50, system Human immunodeficiency virus 1, for the molecule shown: CCCCC12CC1(COC(C)=O)C(=O)Nc1ccc(Cl)cc12 (stereo unspecified)
*A* 5.58

*Q* Enter measured pEC50, system Human immunodeficiency virus 1, for the molecule shown: CCCCCC12CC1(C(=O)OCC)C(=O)Nc1ccc(Cl)cc12 (stereo unspecified)
*A* 6.17

*Q* Enter measured pEC50, system Human immunodeficiency virus 1, for the molecule shown: CCCCC12CC1(C(N)=O)C(=O)Nc1ccc(Cl)cc12 (stereo unspecified)
*A* 5.42

*Q* Enter measured pEC50, system Human immunodeficiency virus 1, for the molecule shown: CCCCC12CC1(COCC)C(=O)Nc1ccc(Cl)cc12 (stereo unspecified)
*A* 5.40

*Q* Enter measured pEC50, system Human immunodeficiency virus 1, for the molecule shown: C=CCCCC12CC1(C(=O)OCC)C(=O)Nc1ccc(Cl)cc12 (stereo unspecified)
*A* 5.90

* * *

Test system: Human immunodeficiency virus 1
Test: Antiviral activity against HIV1 Y188L mutant
Type: functional, organism-based
Record form. Attribute: EC50. Fill in for each entry.

*Q* Check the records and state EC50 for CCCCC12CC1(C(N)=O)C(=O)Nc1ccc(Cl)cc12 (centres undefined)
*A* > 10 µM

*Q* Check the records and state EC50 for Cc1ccnc2c1NC(=O)c1cccnc1N2C1CC1
*A* > 10 µM

*Q* Check the records and state EC50 for CCCCC12CC1(COCC)C(=O)Nc1ccc(Cl)cc12 (centres undefined)
*A* > 10 µM

*Q* Check the records and state EC50 for CCCCC12CC1(C(=O)OCC)C(=O)Nc1ccc(Cl)cc12 (centres undefined)
*A* > 10 µM

*Q* Check the records and state EC50 for CCCCCC12CC1(C(=O)OCC)C(=O)Nc1ccc(Cl)cc12 (centres undefined)
*A* > 10 µM

*Q* Check the records and state EC50 for O=C1Nc2ccc(Cl)cc2C(C#CC2CC2)(C(F)(F)F)O1 (single isomer, unassigned)
*A* 0.28 µM

*Q* Check the records and state EC50 for CCCCC12CC1(COC)C(=O)Nc1ccc(Cl)cc12 (centres undefined)
*A* > 10 µM

*Q* Check the records and state EC50 for CCCCCCC12CC1(C(=O)OCC)C(=O)Nc1ccc(Cl)cc12 (centres undefined)
*A* > 10 µM

*Q* Check the records and state EC50 for CCCCC12CC1(C(=O)OC)C(=O)Nc1ccc(Cl)cc12 (centres undefined)
*A* 7.34 µM

*Q* Check the records and state EC50 for CCCCC12CC1(COC(C)=O)C(=O)Nc1ccc(Cl)cc12 (centres undefined)
*A* > 10 µM

*Q* Check the records and state EC50 for C=CCCCC12CC1(C(=O)OCC)C(=O)Nc1ccc(Cl)cc12 (centres undefined)
*A* > 10 µM

*Q* Check the records and state EC50 for C=CCOC(=O)C12CC1(CCCC)c1cc(Cl)ccc1NC2=O (centres undefined)
*A* > 10 µM

*Q* Check the records and state EC50 for CCOC(=O)C12CC1(CC(C)C)c1cc(Cl)ccc1NC2=O (centres undefined)
*A* > 10 µM

*Q* Check the records and state EC50 for CCCC12CC1(C(=O)OCC)C(=O)Nc1ccc(Cl)cc12 (centres undefined)
*A* > 10 µM
